From: ChEMBL document CHEMBL1136171

- assayText: Oral bioavailability in rat at 10 mg/kg of the compound
- Format: ADME, organism-based
- cond: in vivo
resultType: bioavailability (%)

| compound | resultType | units | valueObserved |
| --- | --- | --- | --- |
| CC#CCOc1ccc(S(=O)(=O)N[C@@H](C(=O)NO)C(C)O)cc1 (stereo partly specified) | bioavailability | % | 46 |

---

Quick record of pIC50 values for UniProt:P45452.
pIC50: −log10 of the molar value.

| compound | pIC50 |
| --- | --- |
| CC#CCOc1ccc(S(=O)(=O)N[C@H](C)C(=O)NO)cc1 | 6.71 |
| CC#CCOc1ccc(S(=O)(=O)NC(C(=O)NO)C(C)(C)SCc2cccnc2)cc1 (stereo not drawn) | 8.10 |
| CC#CCOc1ccc(S(=O)(=O)N(C)C(C(=O)NO)C(C)(C)SCc2cccnc2)cc1 (stereo not drawn) | 8.70 |
| CC#CCOc1ccc(S(=O)(=O)N(C)[C@H](C)C(=O)NO)cc1 | 7.55 |
| CC#CCOc1ccc(S(=O)(=O)N(C)[C@@H](C(=O)NO)C(C)C)cc1 | 7.42 |
| CC#CCOc1ccc(S(=O)(=O)N[C@@H](C(=O)NO)C(C)O)cc1 (stereo partly drawn) | 7.07 |
| CC#CCOc1ccc(S(=O)(=O)N[C@@H](C(=O)NO)C(C)C)cc1 | 7.74 |
| CC#CCOc1ccc(S(=O)(=O)NC(CSCc2cccnc2)C(=O)NO)cc1 (stereo not drawn) | 7.55 |

---

- assayText: Oral bioavailability in monkey at 10 mg/kg of the compound
- Format: ADME, organism-based
- cond: cercopithecidae, in vivo

| compound | bioavailability |
| --- | --- |
| CC#CCOc1ccc(S(=O)(=O)N[C@@H](C(=O)NO)C(C)O)cc1 (stereo partly specified) | 17% |

---

For reference, IC50 measured on Disintegrin and metalloproteinase domain-containing protein 17 (Homo sapiens):

| compound | measurementTarget | IC50 (nM) |
| --- | --- | --- |
| CC#CCOc1ccc(S(=O)(=O)NCC(=O)NO)cc1 | Disintegrin and metalloproteinase domain-containing protein 17 (Homo sapiens) | 5 |
| CC#CCOc1ccc(S(=O)(=O)N[C@H](C)C(=O)NO)cc1 | Disintegrin and metalloproteinase domain-containing protein 17 (Homo sapiens) | 4 |
| CC#CCOc1ccc(S(=O)(=O)NC(CSCc2cccnc2)C(=O)NO)cc1 (stereo not given) | Disintegrin and metalloproteinase domain-containing protein 17 (Homo sapiens) | 3 |
| CC#CCOc1ccc(S(=O)(=O)N[C@@H](C(=O)NO)C(C)O)cc1 (stereo not given in full) | Disintegrin and metalloproteinase domain-containing protein 17 (Homo sapiens) | 10 |
| CC#CCOc1ccc(S(=O)(=O)N(C)[C@@H](C(=O)NO)C(C)C)cc1 | Disintegrin and metalloproteinase domain-containing protein 17 (Homo sapiens) | 15 |
| CC#CCOc1ccc(S(=O)(=O)N(C)[C@H](C)C(=O)NO)cc1 | Disintegrin and metalloproteinase domain-containing protein 17 (Homo sapiens) | 5 |
| CC#CCOc1ccc(S(=O)(=O)N(C)CC(=O)NO)cc1 | Disintegrin and metalloproteinase domain-containing protein 17 (Homo sapiens) | 7 |
| CC#CCOc1ccc(S(=O)(=O)N[C@@H](C(=O)NO)C(C)C)cc1 | Disintegrin and metalloproteinase domain-containing protein 17 (Homo sapiens) | 10 |
| CC#CCOc1ccc(S(=O)(=O)NC(C(=O)NO)C(C)(C)SCc2cccnc2)cc1 (stereo not given) | Disintegrin and metalloproteinase domain-containing protein 17 (Homo sapiens) | 6 |
| CC#CCOc1ccc(S(=O)(=O)N(C)C(C(=O)NO)C(C)(C)SCc2cccnc2)cc1 (stereo not given) | Disintegrin and metalloproteinase domain-containing protein 17 (Homo sapiens) | 54 |

---

pIC50 values by entry
- measurementTarget: Interstitial collagenase (Homo sapiens)
- Sequence (P03956 whole entry): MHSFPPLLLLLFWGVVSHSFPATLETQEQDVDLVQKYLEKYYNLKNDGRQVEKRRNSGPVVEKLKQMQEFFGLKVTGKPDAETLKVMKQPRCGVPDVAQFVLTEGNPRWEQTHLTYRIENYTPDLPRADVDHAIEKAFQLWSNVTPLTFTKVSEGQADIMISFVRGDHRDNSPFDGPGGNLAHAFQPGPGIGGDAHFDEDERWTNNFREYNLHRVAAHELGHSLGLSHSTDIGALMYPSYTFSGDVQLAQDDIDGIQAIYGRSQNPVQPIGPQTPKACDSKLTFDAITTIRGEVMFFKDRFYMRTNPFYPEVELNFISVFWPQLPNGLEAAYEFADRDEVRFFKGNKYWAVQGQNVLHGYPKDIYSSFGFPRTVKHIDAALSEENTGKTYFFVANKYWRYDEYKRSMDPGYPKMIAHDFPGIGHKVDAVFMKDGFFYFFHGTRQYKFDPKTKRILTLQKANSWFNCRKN
pIC50: −log10 of the molar value.
resultType: pIC50

| molecule | resultType | qualifierOperator | valueObserved |
| --- | --- | --- | --- |
| CC#CCOc1ccc(S(=O)(=O)N[C@@H](C(=O)NO)C(C)O)cc1 (stereo not given in full) | pIC50 | = | 5.61 |
| CC#CCOc1ccc(S(=O)(=O)NC(C(=O)NO)C(C)(C)SCc2cccnc2)cc1 (stereo not given) | pIC50 | = | 6.32 |
| CC#CCOc1ccc(S(=O)(=O)NC(CSCc2cccnc2)C(=O)NO)cc1 (stereo not given) | pIC50 | = | 5.72 |
| CC#CCOc1ccc(S(=O)(=O)N(C)[C@H](C)C(=O)NO)cc1 | pIC50 | = | 6.48 |
| CN(CC(=O)NO)S(=O)(=O)c1ccc(CCC#N)cc1 | pIC50 | < | 5.00 |
| CC#CCOc1ccc(S(=O)(=O)N[C@H](C)C(=O)NO)cc1 | pIC50 | = | 5.39 |
| CC#CCOc1ccc(S(=O)(=O)N[C@@H](C(=O)NO)C(C)C)cc1 | pIC50 | = | 5.53 |
| CC#CCOc1ccc(S(=O)(=O)N[C@@H](C(=O)NO)c2ccc(OCCNC)cc2)cc1 | pIC50 | = | 5.00 |
| CC#CCOc1ccc(S(=O)(=O)N(C)[C@@H](C(=O)NO)C(C)C)cc1 | pIC50 | = | 6.59 |

---

- measurementTarget: Matrix metalloproteinase-9 (Homo sapiens, UniProt P14780)
- Sequence (P14780 whole entry): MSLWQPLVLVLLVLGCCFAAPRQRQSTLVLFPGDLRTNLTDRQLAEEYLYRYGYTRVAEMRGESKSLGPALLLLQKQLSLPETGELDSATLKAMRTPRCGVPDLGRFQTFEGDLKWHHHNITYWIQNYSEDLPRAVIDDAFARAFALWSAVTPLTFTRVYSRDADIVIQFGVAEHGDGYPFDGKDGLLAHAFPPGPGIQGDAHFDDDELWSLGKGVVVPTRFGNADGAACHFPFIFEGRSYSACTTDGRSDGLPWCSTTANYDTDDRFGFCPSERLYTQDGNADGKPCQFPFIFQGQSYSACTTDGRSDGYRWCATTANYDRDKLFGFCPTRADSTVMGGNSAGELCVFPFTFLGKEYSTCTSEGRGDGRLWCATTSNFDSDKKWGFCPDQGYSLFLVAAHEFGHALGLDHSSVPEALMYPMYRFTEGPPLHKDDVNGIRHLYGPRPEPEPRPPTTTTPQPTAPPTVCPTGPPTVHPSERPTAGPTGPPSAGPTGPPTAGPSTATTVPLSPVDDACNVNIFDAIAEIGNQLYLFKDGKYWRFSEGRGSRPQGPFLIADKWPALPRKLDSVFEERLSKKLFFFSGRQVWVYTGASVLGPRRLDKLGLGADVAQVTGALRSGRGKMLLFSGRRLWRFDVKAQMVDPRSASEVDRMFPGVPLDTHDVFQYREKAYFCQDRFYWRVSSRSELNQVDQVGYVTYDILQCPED
pIC50: −log10 of the molar value.
Reported pIC50 by item:
resultType: pIC50

| compound | valueObserved |
| --- | --- |
| CC#CCOc1ccc(S(=O)(=O)N[C@H](C)C(=O)NO)cc1 | 6.10 |
| CC#CCOc1ccc(S(=O)(=O)N[C@@H](C(=O)NO)C(C)O)cc1 (some centres not stated) | 6.11 |
| CC#CCOc1ccc(S(=O)(=O)NC(CSCc2cccnc2)C(=O)NO)cc1 (configuration not stated) | 6.80 |
| CC#CCOc1ccc(S(=O)(=O)N(C)C(C(=O)NO)C(C)(C)SCc2cccnc2)cc1 (configuration not stated) | 8.40 |
| CC#CCOc1ccc(S(=O)(=O)N[C@@H](C(=O)NO)C(C)C)cc1 | 7.38 |
| CC#CCOc1ccc(S(=O)(=O)NC(C(=O)NO)C(C)(C)SCc2cccnc2)cc1 (configuration not stated) | 6.89 |
| CC#CCOc1ccc(S(=O)(=O)N(C)[C@H](C)C(=O)NO)cc1 | 7.17 |

---

- assayText: Oral bioavailability in mouse at 10 mg/kg of the compound
- Type: ADME, organism-based
- cond: in vivo
resultType: bioavailability (%)

| molecule | valueObserved |
| --- | --- |
| CC#CCOc1ccc(S(=O)(=O)N[C@@H](C(=O)NO)C(C)O)cc1 (stereo partly specified) | 100 |
